Ref: patent US8497270B2

# Test system: HIV-1 site-directed mutant strain Q148R
# Method notes: Assay 1: inhibitory activity on HIV replication, Q148R mutant (MT4-LTR-EGFP cells)
# Type: cell-based
# Measurement parameters: Human immunodeficiency virus 1, 72 h, read-out: Q148R EC50
Listed here are compounds together with their documented EC50.
Measured attribute: EC50

| Cpd smiles | Measured attribute | Result value |
| --- | --- | --- |
| O=C1NCCCCCCCNc2nc(c(O)c3ncccc23)C(=O)NCc2ccc(F)cc21 | EC50 | 440 nM |
| O=C1NCc2ccc(F)cc2OCCCCC(=O)N2CCN(CC2)c2nc1c(O)c1ncccc21 | EC50 | 39 nM |
| CN1c2nc(c(O)c3ncccc23)C(=O)NCc2ccc(F)cc2OCCCCS1(=O)=O | EC50 | 24 nM |
| O=C1NCCCCCNc2nc(c(O)c3ncccc23)C(=O)NCc2ccc(F)cc21 | EC50 | 7200 nM |
